Source of measurements: paper PMC6251712

Tested target: T1, SHIP2-SH2 S49A (human, UniProt O15357 20-117, S49A)
T1 sequence (looked up): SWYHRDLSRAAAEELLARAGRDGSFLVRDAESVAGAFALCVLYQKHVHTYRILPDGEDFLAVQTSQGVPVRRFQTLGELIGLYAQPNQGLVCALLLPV
Assay info: fluorescence polarisation
Non-standard residues stand in square brackets, D forms with d. No end group written: not given here. FAM = fluorescent label on the peptide N-terminus (FAM, not expanded in the evidence); pY = N[C@@H](Cc1ccc(OP(=O)(O)O)cc1)C(=O)O
Measurement type: Kd (µM)
Numbers only, in µM.

For {FAM}-NAT[pY]VNVK [FAM-labeled c-MET peptide (1353-1360) with Y1356 phosphorylated, FAM-N-A-T-pY-V-N-V-K] , what is its reported Kd?
134
